# System: T-cell factor (TCF)-luciferase reporter using Wnt pathway as index
# assayExplanation: Inhibitory activity against TCF-luciferase reporter using Wnt pathway as index (DLD-1/TCF-Luc cells)
# Type: cell-based, human
# conditionSet: Homo sapiens, DLD-1, 18 h, read-out: Inhibition ratio (%) at 1 μmol/L

- molecule: "CC(=O)N1CCc2ncnc(N3CCC(CN4Cc5ccccc5N(c5ccc(F)c(C#N)c5)C4=O)CC3)c2C1 [Compound 44]"
  inhibition at 1 µM: "82%"
- molecule: "N#Cc1cc(N2C(=O)N(CC3CCN(c4ncnc5cc(N6CCOCC6)ccc45)CC3)Cc3ccccc32)ccn1 [Compound 37]"
  inhibition at 1 µM: "82%"
- molecule: "N#Cc1cc(N2C(=O)N(CC3CCN(c4ncnc5cc(N)cnc45)CC3)Cc3ccccc32)ccn1 [Compound 41]"
  inhibition at 1 µM: "81%"
- molecule: "N#Cc1cc(N2C(=O)N(CC3CCN(c4c(C(N)=O)ccnc4F)CC3)Cc3ccccc32)ccn1 [Compound 40]"
  inhibition at 1 µM: "78%"
- molecule: "N#Cc1cc(N2C(=O)N(CC3CCN(c4ncnc5c4NC(=O)CO5)CC3)Cc3ccccc32)ccn1 [Compound 35]"
  inhibition at 1 µM: "79%"
- molecule: "N#Cc1cc(N2C(=O)N(CC3CCN(c4nccc5c(=O)[nH]cnc45)CC3)Cc3ccccc32)ccn1 [Compound 42]"
  inhibition at 1 µM: "81%"
- molecule: "N#Cc1cc(N2C(=O)N(CC3CCN(c4nccc5nc[nH]c(=O)c45)CC3)Cc3ccccc32)ccn1 [Compound 34]"
  inhibition at 1 µM: "78%"

* * *

# Inhibition ratio (%) at 1 μmol/L annotations
# System: T-cell factor (TCF)-luciferase reporter using Wnt pathway as index
# assayExplanation: Inhibitory activity against TCF-luciferase reporter using Wnt pathway as index (DLD-1/TCF-Luc cells)
# Format: cell-based, human
# conditionSet: 1 μmol/L; DLD-1/TCF-Luc cells; luciferase activity after 18 hours

- chemicalSmiles: "N#Cc1cc(N2C(=O)N(CC3CCN(c4ncnc5cnc(C(N)=O)cc45)CC3)Cc3ncccc32)ccc1F"
  systemUnderTest: "T-cell factor (TCF)-luciferase reporter using Wnt pathway as index"
  unitSpec: "%"
  Inhibition ratio (%) at 1 μmol/L: 84
- chemicalSmiles: "N#Cc1ccccc1CN1C(=O)N(CC2CCN(c3ncnc4cc5c(cc34)OCO5)CC2)Cc2ccccc21"
  systemUnderTest: "T-cell factor (TCF)-luciferase reporter using Wnt pathway as index"
  unitSpec: "%"
  Inhibition ratio (%) at 1 μmol/L: 77
- chemicalSmiles: "N#Cc1cc(N2C(=O)N(CC3CCN(c4ncnc5cc(C(N)=O)ccc45)CC3)Cc3ccccc32)ccn1"
  systemUnderTest: "T-cell factor (TCF)-luciferase reporter using Wnt pathway as index"
  unitSpec: "%"
  Inhibition ratio (%) at 1 μmol/L: 84
- chemicalSmiles: "N#Cc1cc(N2C(=O)N(CC3CCN(c4ncnc5[nH]c(=O)[nH]c45)CC3)Cc3ccccc32)ccn1"
  systemUnderTest: "T-cell factor (TCF)-luciferase reporter using Wnt pathway as index"
  unitSpec: "%"
  Inhibition ratio (%) at 1 μmol/L: 79
